pKi overview
biological target: human Factor XIa (Homo sapiens (Human), UniProt P03951); assay: Factor XIa Assay; type: biochemical; settings: read-out: FXIa Ki
Sequence (P03951 388-625): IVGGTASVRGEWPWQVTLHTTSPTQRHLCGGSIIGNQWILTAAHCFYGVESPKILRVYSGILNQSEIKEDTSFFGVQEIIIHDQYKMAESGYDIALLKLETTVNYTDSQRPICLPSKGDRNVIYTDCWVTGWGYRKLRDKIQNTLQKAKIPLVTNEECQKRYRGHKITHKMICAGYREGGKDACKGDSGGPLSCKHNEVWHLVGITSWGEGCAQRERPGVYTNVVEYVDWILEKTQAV
Sequence (P03951 19-387 partner): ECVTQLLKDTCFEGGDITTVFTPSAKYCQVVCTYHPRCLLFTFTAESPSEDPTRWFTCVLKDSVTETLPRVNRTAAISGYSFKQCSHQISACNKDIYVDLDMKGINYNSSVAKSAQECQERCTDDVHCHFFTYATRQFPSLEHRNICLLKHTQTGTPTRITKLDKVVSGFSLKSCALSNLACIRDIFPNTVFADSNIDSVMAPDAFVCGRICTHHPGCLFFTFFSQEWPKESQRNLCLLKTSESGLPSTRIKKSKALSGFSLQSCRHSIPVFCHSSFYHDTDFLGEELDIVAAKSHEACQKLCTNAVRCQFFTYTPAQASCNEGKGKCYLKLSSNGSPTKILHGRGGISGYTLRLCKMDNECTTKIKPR
pKi: −log10 of the molar value.

molecule	pKi
O=C1Nc2ccc(Cl)cc2[C@@]2(CCN(C(=O)[C@H](Cc3ccccc3)NC(=O)c3ccc4[nH]c(=O)c(=O)[nH]c4c3)C2)O1 [Example 198]	8.56
COCCOC(=O)Nc1ccc(C(=O)N[C@@H](Cc2ccccc2)C(=O)N2CCC3(C2)OC(=O)Nc2ccc(Cl)cc23)cc1 (some centres unmarked) [Example 164]	8.03
Nc1n[nH]c2cc(C(=O)N[C@@H](CC3CC3)C(=O)N3CCC[C@@]4(C3)OC(=O)Nc3ccc(Cl)cc34)ccc12 [Example 200]	8.36
O=C1Nc2ccc(Cl)cc2C2(CCN(C(=O)[C@H](Cc3ccccc3)NC(=O)c3ccc(-n4ccnc4)nc3)C2)O1 (some centres unmarked) [Example 159]	6.13
O=C1Nc2ccc(Cl)cc2C2(CCN(C(=O)[C@H](Cc3ccccc3)NC(=O)c3cc(O)ncn3)C2)O1 (some centres unmarked) [Example 177]	6.25
O=C1Nc2ccc(Cl)cc2C2(CCN(C(=O)[C@H](Cc3ccccc3)NC(=O)c3ccc(C(=O)O)cc3)C2)O1 (single isomer, unassigned) [Example 140a]	5.80
NS(=O)(=O)c1ccc(C(=O)N[C@@H](Cc2ccccc2)C(=O)N2CCC3(C2)OC(=O)Nc2ccc(Cl)cc23)cc1 (some centres unmarked) [Example 139]	6.03
O=C1Nc2ccc(Cl)cc2C2(CCN(C(=O)[C@H](Cc3ccccc3)NC(=O)C3CCC(CO)CC3)C2)O1 (some centres unmarked) [Example 157]	5.47
O=C1Nc2ccc(Cl)c(F)c2[C@@]2(CCCN(C(=O)[C@H](CC3CC3)NC(=O)c3ccc4[nH]c(=O)[nH]c4c3)C2)O1 [Example 213]	7.98
N#Cc1n[nH]c2cc(C(=O)N[C@@H](Cc3ccccc3)C(=O)N3CC[C@@]4(C3)OC(=O)Nc3ccc(Cl)cc34)ccc12 [Example 218]	6.61
COC(=O)Nc1n[nH]c2cc(C(=O)N[C@@H](Cc3ccccc3)C(=O)N3CC[C@@]4(C3)OC(=O)Nc3ccc(Cl)cc34)ccc12 [Example 227]	8.05
O=C1Nc2ccc(Cl)cc2[C@@]2(CCCN(C(=O)[C@H](CC3CC3)NC(=O)c3csc(C(=O)O)n3)C2)O1 [Example 239]	6.39
Nc1nc(C(=O)N[C@@H](Cc2ccccc2)C(=O)N2CCC3(C2)OC(=O)Nc2ccc(Cl)cc23)cs1 (some centres unmarked) [Example 175]	6.67
O=C1Nc2ccc(Cl)cc2[C@@]2(CCCN(C(=O)[C@H](CC3CC3)NC(=O)c3cnc4c(c3)CCN4)C2)O1 [Example 207]	5.06
Nc1n[nH]c2cc(C(=O)N[C@@H](Cc3ccccc3)C(=O)N3CCCC4(C3)OC(=O)Nc3ccc(Cl)c(F)c34)ccc12 (some centres unmarked) [Example 225]	9.40
O=C1Nc2ccc(Cl)c(F)c2[C@@]2(CCCN(C(=O)[C@H](CC3CC3)NC(=O)c3ccc4[nH]c(=O)ccc4c3)C2)O1 [Example 255]	8.40
O=C(Nc1ccc(C(=O)N[C@@H](Cc2ccccc2)C(=O)N2CCC3(C2)OC(=O)Nc2ccc(Cl)cc23)cc1)OCCN1CCOCC1 (some centres unmarked) [Example 191]	7.47
Nc1nc2ccc(C(=O)N[C@@H](Cc3ccccc3)C(=O)N3CCC4(C3)OC(=O)Nc3ccc(Cl)cc34)cc2s1 (some centres unmarked) [Example 181]	7.73
Nc1nc2cc(C(=O)N[C@@H](Cc3ccccc3)C(=O)N3CCC4(C3)OC(=O)Nc3ccc(Cl)cc34)ccc2[nH]1 (some centres unmarked) [Example 180]	7.25
O=C1Nc2ccc(Cl)c(F)c2[C@@]2(CCCN(C(=O)[C@H](Cc3ccccc3)NC(=O)c3ccc(=O)[nH]c3)C2)O1 [Example 246]	7.11
COCC(=O)Nc1ccc(C(=O)N[C@@H](Cc2ccccc2)C(=O)N2CCC[C@@]3(C2)OC(=O)Nc2ccc(Cl)c(F)c23)cc1 [Example 230]	7.76
O=C1Nc2ccc(Cl)cc2C2(CCN(C(=O)[C@H](Cc3ccccc3)NC(=O)c3ccccc3-n3cccn3)C2)O1 (some centres unmarked) [Example 154]	5.60
COC(=O)Nc1ccc(C(=O)N[C@@H](CC2CC2)C(=O)N2CCC[C@@]3(C2)OC(=O)Nc2ccc(Cl)cc23)c(Cl)c1 [Example 201]	7.04
N#Cc1ccc(C(=O)N[C@@H](Cc2ccccc2)C(=O)N2CCC3(C2)OC(=O)Nc2ccc(Cl)cc23)cc1 (some centres unmarked) [Example 150]	6.37
O=C1Nc2ccc(Cl)c(F)c2[C@@]2(CCCN(C(=O)[C@H](CC3CC3)NC(=O)c3ccc(-c4ncc[nH]4)s3)C2)O1 [Example 237]	8.23
Nc1ccc(C(=O)N[C@@H](Cc2ccc(F)cc2)C(=O)N2CCC[C@@]3(C2)OC(=O)Nc2ccc(Cl)cc23)cc1C(=O)O [Example 208]	8.79
